molecular target: human recombinant adrenergic α1D receptor (Homo sapiens); construct: expressed in transfected cells; host or cells: HEK-293 cells; assay: Adrenergic α1D radioligand binding ([3H]Prozosin); set-up: concentration or dose not given beside the values; settings: percent inhibition of specific binding
Sequence (P25100 whole entry): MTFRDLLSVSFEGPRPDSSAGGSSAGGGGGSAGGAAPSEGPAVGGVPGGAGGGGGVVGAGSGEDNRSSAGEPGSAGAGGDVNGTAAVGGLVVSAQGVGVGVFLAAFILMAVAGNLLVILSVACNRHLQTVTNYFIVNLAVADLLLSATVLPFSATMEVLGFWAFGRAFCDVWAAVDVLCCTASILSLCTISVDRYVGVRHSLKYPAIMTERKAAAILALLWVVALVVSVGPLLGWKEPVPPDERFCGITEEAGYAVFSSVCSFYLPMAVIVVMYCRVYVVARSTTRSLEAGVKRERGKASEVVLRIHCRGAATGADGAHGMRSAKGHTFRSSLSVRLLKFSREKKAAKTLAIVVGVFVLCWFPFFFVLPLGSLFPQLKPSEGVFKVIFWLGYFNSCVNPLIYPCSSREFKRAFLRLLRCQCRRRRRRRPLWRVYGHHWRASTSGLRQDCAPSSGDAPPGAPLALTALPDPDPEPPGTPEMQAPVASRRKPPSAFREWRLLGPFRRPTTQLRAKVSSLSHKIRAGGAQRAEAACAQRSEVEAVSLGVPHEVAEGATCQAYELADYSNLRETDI
Measurement Kind: Inhibition of ligand binding, Adren. alpha1D

1. Cc1ccc(Cn2c3c(c4ccccc42)CN(C)CC3)cn1: −7%

What value of Inhibition of ligand binding, Adren. alpha1D has been recorded for this entry: Cc1ccc2c(c1)c1c(n2CC(=O)N2CCC(C)CC2)CCN(C)C1
14%

What value of Inhibition of ligand binding, Adren. alpha1D has been recorded for this entry: CN1CCc2c(c3cc(Cl)ccc3n2CC(=O)N2CCCC2)C1
8%

What value of Inhibition of ligand binding, Adren. alpha1D has been recorded for this entry: Cc1ccc2c(c1)c1c(n2CCc2ccc(C)nc2)CC(=O)N(C)C1
15%

What value of Inhibition of ligand binding, Adren. alpha1D has been recorded for this entry: CN1CCc2c(c3cc(Cl)cc(F)c3n2CCc2ccc(C(F)(F)F)nc2)C1
83%

What value of Inhibition of ligand binding, Adren. alpha1D has been recorded for this entry: CCCc1ccc(CCn2c3c(c4cc(Cl)ccc42)CN(C)CC3)cn1
95%

What value of Inhibition of ligand binding, Adren. alpha1D has been recorded for this entry: Cc1ccc2c(c1)c1c(n2CCCc2ccccn2)CCN(C)C1
49%

What value of Inhibition of ligand binding, Adren. alpha1D has been recorded for this entry: CCOC(=O)c1ccc(CCn2c3c(c4cc(C)ccc42)CN(C)CC3)cn1
87%

What value of Inhibition of ligand binding, Adren. alpha1D has been recorded for this entry: Cc1ccc2c(c1)c1c(n2CCc2ccc(C)nc2)CCN(C)C1=O
−7%

* * *

tested on: mice; assay: recognition test of new location of a known object (spatial memory); assay type: in vivo; settings: mice, dose 0.1 mg/kg
Measurement Kind: time exploring the object in a new location, % of the total time (%)
Kindly provide the numeric value in % only, without the unit symbol.

Solved entries (count: 3):
1) Cc1ccc2c(c1)c1c(n2CCc2nc(-c3ccccc3)cs2)CCN(C)C1: 57.9
2) CN1CCc2c(c3ccccc3n2CCc2nc(-c3ccccc3)cs2)C1: 56.0
3) Cc1ccc2c(c1)c1c(n2CCc2noc(-c3ccccc3)n2)CCN(C)C1: 58.5

// next item, time exploring the object in a new location, % of the total time requested
What value of time exploring the object in a new location, % of the total time has been recorded for this entry: CN1CCc2c(c3cc(F)ccc3n2CCc2noc(-c3ccccc3)n2)C1
63.4

* * *

target: human recombinant histamine H1 receptor (Homo sapiens, UniProt P35367); construct: expressed in transfected cells; host or cells: CHO cells; test: Histamine H1 radioligand binding ([3H]Pyrilamine); details: percent inhibition of specific binding; screened at 1 μM; read-out: Inhibition of ligand binding, Hist. H1
Sequence (P35367 whole entry): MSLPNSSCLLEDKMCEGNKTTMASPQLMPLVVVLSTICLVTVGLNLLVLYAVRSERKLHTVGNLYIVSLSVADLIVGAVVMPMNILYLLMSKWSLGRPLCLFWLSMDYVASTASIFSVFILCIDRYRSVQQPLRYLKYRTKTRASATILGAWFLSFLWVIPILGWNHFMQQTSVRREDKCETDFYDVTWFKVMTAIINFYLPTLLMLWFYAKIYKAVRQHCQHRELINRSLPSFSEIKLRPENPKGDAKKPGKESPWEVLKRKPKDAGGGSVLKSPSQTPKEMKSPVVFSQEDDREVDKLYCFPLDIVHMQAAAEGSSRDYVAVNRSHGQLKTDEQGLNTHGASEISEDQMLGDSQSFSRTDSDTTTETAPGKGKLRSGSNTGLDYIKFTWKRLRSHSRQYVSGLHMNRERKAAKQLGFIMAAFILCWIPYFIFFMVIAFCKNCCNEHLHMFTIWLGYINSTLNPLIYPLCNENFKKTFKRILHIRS
Measurement Kind: inhibition at 1 µM (%)
Kindly provide the numeric value in % only, without the unit symbol.

Solved entries (count: 2):
1. CCN1CCc2c(c3cc(C)ccc3n2CCc2ccccn2)C1: 69
2. CN1CCc2c(c3cc(Cl)ccc3n2CCCc2ccc(C(F)(F)F)nc2)C1: 101

API: value(readout= inhibition at 1 µM, system= human recombinant histamine H1 receptor (Homo sapiens, UniProt P35367), query= CN1CCc2c(c3cc(Cl)ccc3n2CC(=O)N2CCNC(=O)C2)C1 )
18

API: value(readout= inhibition at 1 µM, system= human recombinant histamine H1 receptor (Homo sapiens, UniProt P35367), query= Cc1ccc2c(c1)c1c(n2CC(=O)N2CCN(C)CC2)CCN(C)C1 )
0

API: value(readout= inhibition at 1 µM, system= human recombinant histamine H1 receptor (Homo sapiens, UniProt P35367), query= CCN1CCc2c(c3ccccc3n2CCc2ccc(C)cc2)C1 )
88

API: value(readout= inhibition at 1 µM, system= human recombinant histamine H1 receptor (Homo sapiens, UniProt P35367), query= Cc1ccc2c(c1)c1c(n2CCc2ccc(C(C)C)nc2)CCN(C)C1 )
101

API: value(readout= inhibition at 1 µM, system= human recombinant histamine H1 receptor (Homo sapiens, UniProt P35367), query= Cc1ccc(CCn2c3c(c4cc(Cl)c(F)cc42)CN(C)CC3)cn1 )
102
